Data origin, for the record: patent US20250195520A1

Assay: Plasma concentration by LC-MS/MS in mice bearing HCC827-ER1 tumors (PK/PD study)
Settings: female, athymic nude, mouse, in vivo, 5 mg/kg, osimertinib plasma concentration, 18 hr post osimertinib (24 hr post (10b)); osimertinib 5 mg/kg PO; mean ± SD
measurement-type: concentration at 18 h
Form field: result (number plus unit)

concentration at 18 h in this record for "C=CC(=O)Nc1cc(Nc2nccc(-c3cn(C)c4ccccc34)n2)c(OC)cc1N(C)CCN(C)C" : 2.1 nM

---

Assay: Plasma concentration by LC-MS/MS in mice bearing HCC827-ER1 tumors (PK/PD study)
Conditions: female, athymic nude, mouse, plasma, oral, 100 mg/kg, 10(b) plasma concentration, 6 hr post (10b) (24 hr post osimertinib); formula (10b) 100 mg/kg PO; mean ± SD
measurement-type: concentration at 6 h (µM)
Supply the numeric figure in µM, leaving out any unit text.

// recorded concentration at 6 h for Cc1c(N2CCC3(CC2)CO[C@@H](C)[C@H]3N)nc(C)n(-c2cccc(Cl)c2Cl)c1=O (atropisomer, axis not shown; (Ra)) [Formula (10b)] : 47.4

---

Test: Plasma concentration by LC-MS/MS in mice bearing HCC827-ER1 tumors (PK/PD study)
Details: female, athymic nude, mouse, plasma, oral, 100 mg/kg, 10(b) plasma concentration, 24 hr post (10b) (18 hr post osimertinib); formula (10b) 100 mg/kg PO; mean ± SD
measurement-type: concentration at 24 h

Kindly note the recorded concentration at 24 h for Cc1c(N2CCC3(CC2)CO[C@@H](C)[C@H]3N)nc(C)n(-c2cccc(Cl)c2Cl)c1=O (atropisomer, axis not shown; (Ra)) [Formula (10b)] , which is ~1 µM
